Target: human H4 receptor (Homo sapiens, UniProt Q9H3N8)
Construct: expressed in transfected cells
Sequence (Q9H3N8 whole entry): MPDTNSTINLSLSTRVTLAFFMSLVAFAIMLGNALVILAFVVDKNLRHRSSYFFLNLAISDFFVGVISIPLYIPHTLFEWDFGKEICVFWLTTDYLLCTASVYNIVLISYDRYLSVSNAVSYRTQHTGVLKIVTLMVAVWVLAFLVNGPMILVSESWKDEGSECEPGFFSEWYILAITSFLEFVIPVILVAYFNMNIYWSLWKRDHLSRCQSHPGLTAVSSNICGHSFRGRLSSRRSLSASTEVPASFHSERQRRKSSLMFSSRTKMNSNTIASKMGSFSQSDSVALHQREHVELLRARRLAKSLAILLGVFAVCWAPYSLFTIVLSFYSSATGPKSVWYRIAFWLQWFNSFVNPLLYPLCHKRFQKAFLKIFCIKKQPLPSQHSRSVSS
Experiment: [3H]Histamine binding on membranes of CHO cells stably expressing human H4 receptor
measured.attribute: Ki or IC50 activity class

[
  {
    "molecule": "CN1CCC(OC(c2cccc(CCCCCCNC(=N)N)c2)c2nc3ccccc3s2)CC1 (centres unmarked)",
    "Ki or IC50 activity class": "< 300 nM"
  }
]

**Query** What value of measured Ki or IC50 activity class is listed for CSc1ccc(O)c(C(OC2CCN(C)CC2)c2nc3ccccc3[nH]2)c1 (centres unmarked) ?
**Result** < 30 nM

**Query** What value of measured Ki or IC50 activity class is listed for CC(C)Oc1cccc(C(NC2CCN(C)CC2)c2nc3ccccc3s2)c1 (centres unmarked) ?
**Result** < 30 nM

**Query** What value of measured Ki or IC50 activity class is listed for CN1CCC(OC(c2nc3ccccc3[nH]2)c2cc(OCCCF)ccc2O)CC1 (centres unmarked) ?
**Result** < 300 nM

**Query** What value of measured Ki or IC50 activity class is listed for CN1CCC(OC(c2cccc(C#CC3CNC3)c2)c2nc3ccccc3[nH]2)CC1 (centres unmarked) ?
**Result** < 1000 nM
